Molecular target: human JAK2 (a.a. 828-1132) (Homo sapiens)
Construct: JAK2 (a.a. 828-1132); His tag (N); made in house; host or cells: insect cells (baculovirus)
Sequence (O60674 828-1132): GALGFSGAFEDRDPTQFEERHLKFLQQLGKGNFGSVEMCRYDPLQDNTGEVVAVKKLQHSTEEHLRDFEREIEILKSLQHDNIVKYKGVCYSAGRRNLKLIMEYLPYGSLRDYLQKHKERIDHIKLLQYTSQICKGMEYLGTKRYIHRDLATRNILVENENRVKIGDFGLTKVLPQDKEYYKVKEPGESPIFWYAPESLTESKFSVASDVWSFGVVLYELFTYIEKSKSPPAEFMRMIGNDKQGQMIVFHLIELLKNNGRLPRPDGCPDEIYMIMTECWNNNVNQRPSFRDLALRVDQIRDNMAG
Test: In vitro JAK kinase assay (HTRF, phosphorylation of a biotinylated peptide), JAK2
Assay type: biochemical
Details: Table B1
pIC50: −log10 of the molar value. Where a name gives a salt, the structure may show the parent alone.
Quantity: pIC50

{"Compound": "O=C(Nc1nccs1)Nc1ccc2cc1CCc1cccc(c1)Nc1ncc(Cl)c(n1)N2 [Example B245, trifluoroacetate]", "Endpoint result": 7.11}
{"Compound": "CCOc1ccccc1NC(=O)Nc1ccc2cc1CCc1cccc(c1)Nc1ncc(Cl)c(n1)N2 [Example B106, trifluoroacetate]", "Endpoint result": 8.02}
{"Compound": "Oc1ccnc(Nc2ccc3cc2CCc2cccc(c2)Nc2ncc(Cl)c(n2)N3)n1 [Example B277, bis(trifluoroacetate)]", "Endpoint result": 8.23}
{"Compound": "O=C(Nc1ccc2cc1CCc1cccc(c1)Nc1ncc(Cl)c(n1)N2)c1ccc(C(F)(F)F)nc1 [Example B77, bis(trifluoroacetate)]", "Endpoint result": 8.66}
{"Compound": "NS(=O)(=O)N1CCC(NC(=O)Nc2ccc3cc2CCc2cccc(c2)Nc2ncc(Cl)c(n2)N3)CC1 [Example B183, trifluoroacetate]", "Endpoint result": 9.00}
{"Compound": "CNC(=O)Nc1ccc2cc1CCc1cncc(c1)Nc1ncc(Cl)c(n1)N2 [Example B135, bis(trifluoroacetate)]", "Endpoint result": 8.37}
{"Compound": "O=C(Nc1ccc2cc1CCc1cccc(c1)Nc1ncc(Cl)c(n1)N2)c1ccc2occc2c1 [Example B79, trifluoroacetate]", "Endpoint result": 9.24}

src = patent US8871753B2
